# assayed system: human ether-à-go-go-related gene (hERG) potassium channel (human, UniProt Q12809);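 further: peak tail current of the secondary pulse compared with the same well before compound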
# Sequence (Q12809 whole entry, looked up): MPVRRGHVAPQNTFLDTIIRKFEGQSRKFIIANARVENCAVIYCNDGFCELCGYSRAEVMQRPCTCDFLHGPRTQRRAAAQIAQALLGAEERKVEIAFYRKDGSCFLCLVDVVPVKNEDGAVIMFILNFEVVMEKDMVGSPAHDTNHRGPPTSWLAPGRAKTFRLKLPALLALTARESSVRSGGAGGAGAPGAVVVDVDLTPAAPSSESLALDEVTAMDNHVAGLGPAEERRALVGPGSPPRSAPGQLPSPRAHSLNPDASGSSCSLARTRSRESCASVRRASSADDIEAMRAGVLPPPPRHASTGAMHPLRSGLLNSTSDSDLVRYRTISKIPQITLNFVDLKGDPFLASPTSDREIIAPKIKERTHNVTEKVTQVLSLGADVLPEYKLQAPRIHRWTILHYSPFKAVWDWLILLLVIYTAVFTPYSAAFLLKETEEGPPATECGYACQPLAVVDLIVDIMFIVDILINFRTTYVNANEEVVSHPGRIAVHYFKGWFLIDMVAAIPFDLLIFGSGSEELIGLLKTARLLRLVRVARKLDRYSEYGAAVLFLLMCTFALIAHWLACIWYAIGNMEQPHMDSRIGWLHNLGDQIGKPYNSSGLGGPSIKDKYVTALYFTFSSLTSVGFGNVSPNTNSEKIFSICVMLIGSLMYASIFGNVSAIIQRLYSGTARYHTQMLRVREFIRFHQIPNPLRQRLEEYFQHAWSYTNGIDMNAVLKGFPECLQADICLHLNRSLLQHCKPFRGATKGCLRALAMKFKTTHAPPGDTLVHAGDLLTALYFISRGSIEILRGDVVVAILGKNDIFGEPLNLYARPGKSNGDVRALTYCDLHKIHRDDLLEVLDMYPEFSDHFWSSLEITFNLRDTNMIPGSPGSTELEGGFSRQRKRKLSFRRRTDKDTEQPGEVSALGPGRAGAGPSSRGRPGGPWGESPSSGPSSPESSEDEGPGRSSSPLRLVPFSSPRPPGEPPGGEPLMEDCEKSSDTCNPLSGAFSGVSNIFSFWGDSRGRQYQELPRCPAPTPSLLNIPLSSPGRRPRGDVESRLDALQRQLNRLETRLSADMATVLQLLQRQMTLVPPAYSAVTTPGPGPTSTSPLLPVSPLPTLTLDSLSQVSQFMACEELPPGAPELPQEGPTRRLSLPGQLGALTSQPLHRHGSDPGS
# protocol: primary screen, population patch clamp on CHO cells stably expressing hERG; higher = less effect of the substance
Screen size: about 310,000 compounds; about 14,000 (4.5%) showed an effect of 50% or more. Effects have a minus sign here. Many of the other results were omitted from the sample, so strong results are more common in it than they were.
observation type: hERG current change (%, negative = inhibition) at 10uM
Put down the number, then write its unit next to it.

// solved cases for hERG current change (%, negative = inhibition) at 10uM follow
smiles entry	value
CCOc1cc(NC(=O)c2ccccc2C)c(OCC)cc1NC(=O)C1=Cc2ccccc2OC1	9.99%
O=C(N/C(=C\c1ccccc1)C(=O)N1CCOCC1)c1ccco1	17.1%

Let's switch to this molecule now.
hERG current change (%, negative = inhibition) at 10uM reading for O=C(N/C(=C\c1ccc(Cl)cc1)C(=O)N1CCOCC1)c1ccco1 : -31.4%

Each recorded value in this set is attributed to paper PMC4336329.
